targetOrSystem: Biotin QP004.3 (biotin-PDL1-FC) (human) (UniProt Q9NZQ7)
Sequence (Q9NZQ7 19-238 limits assumed): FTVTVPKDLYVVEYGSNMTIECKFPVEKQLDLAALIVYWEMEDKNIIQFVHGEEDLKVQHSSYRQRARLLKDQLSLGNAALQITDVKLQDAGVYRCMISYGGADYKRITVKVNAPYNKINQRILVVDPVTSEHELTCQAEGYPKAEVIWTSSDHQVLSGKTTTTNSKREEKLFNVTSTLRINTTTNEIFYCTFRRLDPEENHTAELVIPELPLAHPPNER
testName: blocking ELISA, PD1-FC coated, biotin-PDL1-FC plus antibody; competitor PD1-FC
measure: ELISA reading at 0.4115 nM antibody
Lab note: jot the number down without any unit.

binder	ELISA reading at 0.4115 nM antibody
QP325 (Fc fusion, not shown: a dimerising Fc or GST) EVQLLESGGGLVQPGGSLRLSCAASGFTYGTYAMSWFRQAPGKGLEGVACIDIYGRTSYTDPVKGRFTISQDNSKNTLYLQMNSLRAEDTAVYYCAARDFGYCTASWVHEGFSRYWGQGTLVTVSS	0.975

Record request: ELISA reading at 0.4115 nM antibody value, item QP1166 (Fc fusion, not shown: a dimerising Fc or GST) QVQLVESGGDSVQPGGSLRLSCAASGFTYGTYAMSWFRQAPGKEREGVACIDIYGRTSYTDPVKGRFTISQDNAKNTLYLQMNSLKPEDTAMYYCAARDFGYCTASWVHEGFSRYWGQGTQVTVSS
1.06

Requested field: ELISA reading at 0.4115 nM antibody. Item: QP320 (Fc fusion, not shown: a dimerising Fc or GST) EVQLLESGGGLVQPGGSLRLSCAASGFTYGTYAMSWVRQAPGKGLEWVSCIDIYGRASYTDPVKGRFTISRDNSKNTLYLQMNSLRAEDTAVYYCAARDFGYCTASWVHEGFSRYWGQGTLVTVSS
1.47

Recorded ELISA reading at 0.4115 nM antibody for QP324 (Fc fusion, not shown: a dimerising Fc or GST) EVQLLESGGGLVQPGGSLRLSCAASGFTYGTYAMSWVRQAPGKGLEWVACIDIYGRTSYTDPVKGRFTISQDNSKNTLYLQMNSLRAEDTAVYYCAARDFGYCTASWVHEGFSRYWGQGTLVTVSS , please?
0.901
